target: Human immunodeficiency virus type 1 protease (Human immunodeficiency virus 1, UniProt Q72874, Q7K); test: Inhibition of wild type HIV1 protease Q7K mutant
Assay metric: Ki

>>> result("COc1cccc(S(=O)(=O)N(Cc2cccs2)C[C@@H](O)[C@H](Cc2ccccc2)NC(=O)[C@@H]2CN(c3ccccc3)C(=O)O2)c1")
"0.239 µM"
>>> result("COc1cccc(S(=O)(=O)N(Cc2cccs2)C[C@@H](O)[C@H](Cc2ccccc2)NC(=O)[C@@H]2CN(c3cccc(F)c3)C(=O)O2)c1")
"0.189 µM"
>>> result("COc1cccc(S(=O)(=O)N(CC(C)C)C[C@@H](O)[C@H](Cc2ccccc2)NC(=O)[C@@H]2CN(c3ccccc3)C(=O)O2)c1")
"0.0038 µM"
>>> result("CC(C)CN(C[C@@H](O)[C@H](Cc1ccccc1)NC(=O)[C@@H]1CN(c2cccc(F)c2)C(=O)O1)S(=O)(=O)c1ccc(N)cc1")
"0.00017 µM"
